- measurementTarget: HCV NS3 protease (full length NS34a) (Hepatitis C virus genotype 1b)
- Construct: The protease activity of the full length NS34a was measured using a FRET-based assay; made in house
- Sequence (P26663 1658-1711): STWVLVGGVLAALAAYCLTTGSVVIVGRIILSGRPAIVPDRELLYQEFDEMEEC
- Sequence (P26663 1027-1657): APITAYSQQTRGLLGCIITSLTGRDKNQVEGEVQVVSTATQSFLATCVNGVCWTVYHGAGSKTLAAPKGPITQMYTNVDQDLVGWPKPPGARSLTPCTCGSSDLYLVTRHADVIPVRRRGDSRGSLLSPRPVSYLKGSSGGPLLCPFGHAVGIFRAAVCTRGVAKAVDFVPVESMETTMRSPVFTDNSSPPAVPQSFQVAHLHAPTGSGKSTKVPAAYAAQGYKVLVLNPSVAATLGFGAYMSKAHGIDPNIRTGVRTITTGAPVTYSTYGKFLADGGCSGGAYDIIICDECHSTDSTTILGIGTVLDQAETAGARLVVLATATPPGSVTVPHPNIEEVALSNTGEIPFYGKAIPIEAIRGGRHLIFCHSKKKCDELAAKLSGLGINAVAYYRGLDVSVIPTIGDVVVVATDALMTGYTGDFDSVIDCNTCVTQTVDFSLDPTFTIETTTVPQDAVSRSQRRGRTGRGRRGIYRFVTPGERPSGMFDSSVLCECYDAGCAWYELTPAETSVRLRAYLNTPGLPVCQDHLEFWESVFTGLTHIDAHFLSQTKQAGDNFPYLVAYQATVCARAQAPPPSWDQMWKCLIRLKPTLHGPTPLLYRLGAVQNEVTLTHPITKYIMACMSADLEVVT
- measurementNotes: HCV NS3 protease assay (FRET, full length NS34a)
- Assay type: biochemical
- conditionInfo: protease activity of full length NS34a, FRET peptide substrate; read-out: Activity IC50
Where a name gives a salt, the structure may show the parent alone.
property: IC50 (nM)
All answers are understood in nM, so give the number only.

Please review the following examples before continuing.
molecule: CC[C@@H](N[C@@H](C)CC(=O)N[C@@H]1CCNC1)c1ccc(Cl)c(Oc2ccccc2)c1F
IC50 (nM): 390
//
molecule: CC[C@@H](N[C@@H](C)CC(N)=O)c1ccc(Cl)c(Oc2ccc(N)c(Cl)c2)c1F [Example 266C]
IC50 (nM): 87

Lookup: Given the molecule CNC(CC(C)C)c1ccc(F)c(Oc2ccccc2)c1F (centres unmarked) [Example 16, hydrochloride] , write its reported IC50.
Found: 4000

Lookup: Query IC50 for OCCN[C@@H](CC1CCNCC1)c1ccc(F)c(Oc2ccccc2)c1F
Found: 1300

Lookup: Give reported IC50 value for NC(c1ccc(F)c(Oc2ccccc2)c1F)C1CCNCC1 (centres unmarked) [Example 14, dihydrochloride]
Found: 1700
